The values you see were collected from patent US10202412B2.

System: Differentiated normal human bronchial epithelial (dNHBE) cells
Test: dNHBE assay: toxicity evaluated microscopically
Type: cell-based
Parameters: unit not given here
parameter: Visual toxicity

Give me Visual toxicity for each of these molecules, listed below.
1. CNc1nc(N)nc2c1ncn2[C@@H]1O[C@](C)(CO)[C@@H](O)[C@H]1F
2. CC(C)OC(=O)[C@H](C)N[P@](=O)(OC[C@@]1(C)O[C@@H](n2cnc3c(NC4CC4)nc(N)nc32)[C@H](F)[C@@H]1O)Oc1ccccc1
3. CC(C)OC(=O)[C@H](C)NP(=O)(OC[C@@]1(CCl)O[C@@H](n2ccc(N)nc2=O)[C@H](F)C1O)Oc1ccccc1 (stereo in doubt)

Key:
1. >320
2. >1.6
3. >177

Give me Visual toxicity for each of these molecules, listed below.
1. CNc1nc(NC)c2ncn([C@@H]3O[C@](C)(CO[P@@](=O)(N[C@@H](C)C(=O)OC(C)C)Oc4ccccc4)[C@@H](O)[C@H]3F)c2n1
2. CC[C@]1(COP(=O)(N[C@@H](C)C(=O)OC(C)C)Oc2ccccc2)O[C@@H](n2cnc3c(NC)nc(N)nc32)[C@H](F)[C@@H]1O (stereo partly drawn)
3. CNc1nc(F)nc2c1ncn2[C@@H]1O[C@](C)(CO[P@@](=O)(N[C@@H](C)C(=O)OC(C)C)Oc2ccccc2)[C@@H](O)[C@H]1F
4. CC(C)OC(=O)[C@H](C)NP(=O)(OC[C@@]1(C)O[C@@H](n2cnc3c(N(C)C)nc(N)nc32)[C@H](F)[C@@H]1O)Oc1ccccc1 (stereo partly drawn)

Key:
1: >1.7; 2: >167; 3: >1.7; 4: >167

Give me Visual toxicity for each of these molecules, listed below.
1. CNc1nc(N)nc2c1ncn2[C@@H]1O[C@](CCl)(COP(=O)(N[C@@H](C)C(=O)OC(C)C)Oc2ccccc2)[C@@H](O)[C@H]1F (stereo partly drawn)
2. CC(C)OC(=O)[C@H](C)N[P@](=O)(OC[C@@]1(CCl)O[C@@H](n2cnc3c(N(C)C)nc(N)nc32)[C@H](F)[C@@H]1O)Oc1ccccc1

Key:
[">162", ">15"]

----------
Test system: Differentiated normal human bronchial epithelial (dNHBE) cells
Test: dNHBE assay: toxicity evaluated microscopically
Type: cell-based
Parameters: unit not given here
Consider the following compounds; for each one, report its Visual toxicity.

Please review the following examples before continuing.
[
  {
    "compound": "CNc1nc(N)nc2c1ncn2[C@@H]1O[C@](CCl)(CO[P@@](=O)(N[C@@H](C)C(=O)OC(C)C)Oc2ccccc2)[C@@H](O)[C@@H]1F",
    "Visual toxicity": ">1.6"
  },
  {
    "compound": "Nc1ccn([C@@H]2O[C@@](CO)(CCl)C(O)[C@H]2F)c(=O)n1 (stereo in doubt)",
    "Visual toxicity": ">338"
  },
  {
    "compound": "CC[C@]1(COP(=O)(N[C@@H](C)C(=O)OC(C)C)Oc2ccccc2)O[C@@H](n2cnc3c(N(C)C)nc(N)nc32)[C@@H](F)[C@@H]1O (stereo partly shown)",
    "Visual toxicity": 164
  }
]

Now for the compound whose Visual toxicity we want.
Exercise: Could you share which Visual toxicity value was measured for CC[C@]1(CO)O[C@@H](n2cnc3c(NC)nc(N)nc32)[C@H](F)[C@@H]1O ?
Key: >306
